# Emax per record follows
SUBJECT_OF_TEST: human muscarinic M3 receptor (Homo sapiens, UniProt P20309)
Construct: expressed in transfected cells
Sequence (P20309 whole entry): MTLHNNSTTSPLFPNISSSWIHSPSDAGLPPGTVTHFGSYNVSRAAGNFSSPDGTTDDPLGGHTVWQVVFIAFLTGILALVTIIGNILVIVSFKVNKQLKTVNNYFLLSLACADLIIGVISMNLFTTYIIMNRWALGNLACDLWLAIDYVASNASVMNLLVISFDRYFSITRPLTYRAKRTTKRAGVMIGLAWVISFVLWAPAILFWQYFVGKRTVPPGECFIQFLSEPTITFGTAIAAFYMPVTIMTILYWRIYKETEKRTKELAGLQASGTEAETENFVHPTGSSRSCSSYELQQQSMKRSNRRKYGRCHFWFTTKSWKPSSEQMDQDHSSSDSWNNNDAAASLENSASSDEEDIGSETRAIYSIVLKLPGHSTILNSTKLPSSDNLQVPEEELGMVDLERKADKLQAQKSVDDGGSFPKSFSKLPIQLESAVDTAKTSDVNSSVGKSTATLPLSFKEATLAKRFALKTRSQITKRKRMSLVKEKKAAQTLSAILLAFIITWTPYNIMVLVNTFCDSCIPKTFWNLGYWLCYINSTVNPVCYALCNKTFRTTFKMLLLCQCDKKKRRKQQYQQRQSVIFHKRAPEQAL
MEASUREMENT_PROTOCOL: Phospho-ERK1/2 assay, muscarinic M3
Type: cell-based
MEASUREMENT_CONTEXT: CHO, read-out: % Emax cf. ACh (M3)
Supply the numeric figure in %, leaving out any unit text.

Reference set, count: 4
CCOC(=O)N1CCCC(N2CCC(F)(C(=O)NC(C)(C)CC)CC2)CC1 (centres unmarked)	12
CCOC(=O)N1CCCC(N2CCC(C)(C(=O)NC3(C)CCC3)CC2)CC1 (centres unmarked)	0
CCOC(=O)N1CCCC(N2CCC(C#N)(C(=O)NC3(C)CCC3)CC2)CC1 (centres unmarked)	2
CC#CCOC(=O)N1CCCC(N2CCC(OC)(C(=O)NC3(C)CCC3)CC2)CC1 (centres unmarked)	7

Now consider a different compound.
Q: May I ask what Emax has been recorded for "CCOC(=O)N1CCC[C@@H](N2CCC(C(=O)NCC(C)C)CC2)CC1" ?
Ans: 9

Data provenance: patent US10973832B2
